Consider the following molecules; for each one, report its pIC50.
- Tgt: Acetylcholinesterase (Electrophorus electricus)
- Sequence (O42275 whole entry): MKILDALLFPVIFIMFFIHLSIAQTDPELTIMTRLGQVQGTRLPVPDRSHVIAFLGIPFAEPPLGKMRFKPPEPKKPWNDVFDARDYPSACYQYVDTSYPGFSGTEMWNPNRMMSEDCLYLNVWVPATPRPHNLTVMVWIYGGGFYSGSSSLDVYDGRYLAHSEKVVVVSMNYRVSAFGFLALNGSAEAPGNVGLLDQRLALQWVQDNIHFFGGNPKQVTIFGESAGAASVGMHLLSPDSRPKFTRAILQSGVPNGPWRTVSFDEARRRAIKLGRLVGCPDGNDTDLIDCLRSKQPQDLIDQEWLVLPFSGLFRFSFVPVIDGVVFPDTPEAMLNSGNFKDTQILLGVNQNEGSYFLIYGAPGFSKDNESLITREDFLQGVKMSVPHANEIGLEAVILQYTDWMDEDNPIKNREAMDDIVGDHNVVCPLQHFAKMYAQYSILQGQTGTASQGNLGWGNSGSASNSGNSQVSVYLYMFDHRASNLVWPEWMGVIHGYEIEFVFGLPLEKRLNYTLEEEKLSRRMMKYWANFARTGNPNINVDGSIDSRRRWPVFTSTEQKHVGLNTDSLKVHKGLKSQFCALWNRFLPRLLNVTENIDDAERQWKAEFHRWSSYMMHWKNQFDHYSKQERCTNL
Answers are plain numbers, as −log10 of the molar value.

Example entries and their recorded answers appear below.
Cc1c(OCc2ccc(OC(=O)N(C)C)cc2)c(=O)ccn1-c1ccccc1: 3.66
Cc1ccc(OC(=O)N(C)C)cc1 [P-TOLYL DIMETHYLCARBAMATE]: 2.89

For the next question, use this molecule.
State its pIC50: "Cc1c(O)c(=O)ccn1-c1ccc(OC(=O)N(C)C)cc1"
3.46
